// reported pIC50 for each item listed
# Target of assay: CIB1 and αIIb interaction (CIB1-GST : F-αIIb peptide) (Homo sapiens, UniProt Q99828)
# Construct: made in house; host or cells: BL-21 plus RIL cells (E. coli)
# Sequence (Q99828 1-191): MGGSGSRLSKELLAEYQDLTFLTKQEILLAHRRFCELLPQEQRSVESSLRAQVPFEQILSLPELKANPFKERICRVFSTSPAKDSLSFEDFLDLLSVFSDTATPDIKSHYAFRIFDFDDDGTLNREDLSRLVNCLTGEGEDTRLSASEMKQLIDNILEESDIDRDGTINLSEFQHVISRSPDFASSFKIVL
# Method description: FP assay, 1536-well qHTS format (primary and confirmatory screen)
# Assay type: binding
# Details: qHTS primary screen hits, Table S2; read-out: IC50
Kindly note that pIC50 refers to -log10 of the concentration in mol/L and answer with the value alone.

Reference set, count: 8
> print(dat)
                                   compound  value.type  test.value
1  CCCc1ccc(-c2csc(NC(=O)c3ccncc3NS(=O)(=O)c3ccc(C)cc3)n2)cc1.O=C(O)C(F)(F)F       pIC50        4.30
2  O=C(O)c1ccc(S(=O)(=O)N[C@@H](Cc2ccc(O)cc2)C(=O)O)cc1       pIC50        4.35
3  COc1ccc(C(=O)O[C@H]2C=COC=C3C=C4C(=O)N(C)C(=S)C(=O)N4[C@@H]32)cc1Oc1cc(C=O)ccc1O       pIC50        4.65
4  Cc1ccnc(N(C)C(=S)N2CCN(c3cccc(C(F)(F)F)c3)CC2)c1.O=C(O)C(F)(F)F       pIC50        4.30
5  CCN(CC)CCOc1ccc(Nc2ncc3cc(-c4c(Cl)cccc4Cl)c(=O)n(C)c3n2)cc1.Cl.Cl.O       pIC50        4.30
6  CCOc1ccc(CCNC(=O)c2ccc(N3N=C(C)CC3=O)cc2)cc1OCC.O=C(O)C(F)(F)F       pIC50        4.65
7  CN1CCN(c2ccc(NC(=O)CN(C)Cc3c(O)ccc4ccccc34)cc2)CC1.O=C(O)C(F)(F)F       pIC50        4.05
8  CN(C)CCCCCCNC(=O)c1cccc(-c2cc(O)c3ncccc3c2)c1.O=C(O)C(F)(F)F       pIC50        4.65

Name the recorded pIC50 for Nc1ccn(C2CO[C@H](CO)O2)c(=O)n1 (stereo partly shown) . 4.40

Would you kindly share the measured pIC50 for `NS(=O)(=O)c1ccc(Nc2nc(-c3ccccc3)cs2)cc1.O=C(O)C(F)(F)F` ? 4.30

Fill in the blank: the reported pIC50 of `CN1CCN(CCC(=O)N2c3ccccc3Sc3ccc(C(F)(F)F)cc32)CC1.Cl` is ____. 4.25

Which measured pIC50 value corresponds to CC(=O)NC(C)c1cc(Cl)c2cccnc2c1O (stereo not shown) ? 4.35

Data request, read-out pIC50, for CNc1nc2c(s1)C(c1c(F)cccc1Cl)CC(=O)N2.O=C(O)C(F)(F)F (stereo not shown) 4.25

Can you share its pIC50? I mean this compound: `O=C(O)C(F)(F)F.OCc1ccc(-c2ccc3ncnc(NCc4nccs4)c3c2)o1` 4.40

I have this compound here, `CCc1ccc(NC(=O)C(=O)NNC(=O)c2cccs2)cc1.O=C(O)C(F)(F)F` , and I need its recorded pIC50. 5.49

Entry under review: CN1Cc2c(N)cccc2C(c2ccccc2)C1.O=C(O)/C=C\C(=O)O (stereo not shown) . Reported pIC50? 4.30

###

# Target of assay: CIB1 and αIIb interaction (CIB1-GST : F-αIIb peptide) (Homo sapiens)
# Construct: made in house; host or cells: BL-21 plus RIL cells (E. coli)
# Method description: FP assay, 1536-well qHTS format (primary and confirmatory screen)
# Type: binding
# Details: qHTS primary screen hits, Table S2; negative = inhibition
Quick rule for you: Efficacy (%) at -30% or higher means Fulfilled, lower means Not fulfilled.

Compound	Cat
CC(=O)Nc1sc2c(c1-c1nc3ccccc3s1)CCN(C1COC1)C2.O=C(O)C(F)(F)F	Not fulfilled

Is the recorded value of Efficacy (%) equal to or greater than -30% for this compound? CCN1C(=O)c2ccccc2[S+]([O-])c2ccc(C(=O)Nc3ncc(C)s3)cc21 (stereo not shown) Fulfilled

Is it the case that `Cc1ccccc1C(=O)N1CCc2cc(-c3nc(NC(=O)Cc4cccc(OCCOCCOCCN)c4)sc3C)ccc21.O=C(O)C(F)(F)F` has Efficacy (%) reaching or exceeding -30%? Not fulfilled

Quick check: does `Nc1ccc(-c2nc3ccc(-c4nc5cc(N)ccc5[nH]4)cc3[nH]2)cc1` have Efficacy (%) greater than or equal to -30%? Not fulfilled

Hello, I need to know if `CC(=O)O.Cc1ccc(OCCn2c(CCNC(=O)c3ccc(N)cc3)nc3ccccc32)cc1` has measured Efficacy (%) not below -30%. Thanks! Not fulfilled

Item Nc1nc2c(s1)C(c1ccccc1)CC(=O)N2 (stereo not shown) with Efficacy (%) of -30% or above? Not fulfilled

# bool: Efficacy (%) of `O=C1C=CC(=O)N1c1ccc(N2CCOCC2)cc1` >= -30% Not fulfilled

Has C=C(C)C(=O)OC1CC2(C)OC(=CC2=O)C(=C)CC2OC(=O)C(COC)C12 (stereo not shown) a recorded Efficacy (%) greater than or equal to -30%? Fulfilled

###

# Target of assay: CIB1 and αIIb interaction (CIB1-GST : F-αIIb peptide) (Homo sapiens, UniProt Q99828)
# Construct: made in house; host or cells: BL-21 plus RIL cells (E. coli)
# Method description: FP assay, 1536-well qHTS format (primary and confirmatory screen)
# Format: binding
# Details: confirmatory screen, qHTS curve class; negative sign = inhibitory curve
Value type: Curve Class (confirmatory screen)
Please reply with the value in numeric form only.

Example entries and their recorded answers appear below.
> print(dat)
                               entry.smiles  test.value
1  Cc1cc(/N=N/c2ccc(S(=O)(=O)Nc3ccccn3)cc2)c(N)cc1O        -2.2
2  Cc1cc2c(C(C)C)c(O)c(O)c(C=O)c2c(O)c1-c1c(C)cc2c(C(C)C)c(O)c(O)c(C=O)c2c1O        -1.4
3  C[C@H](Cc1ccc(O)c(O)c1)[C@@H](C)Cc1ccc(O)c(O)c1        -2.2
4  Cc1cc(SCc2sc(-c3ccc(Cl)c(Cl)c3)nc2C)ccc1OCC(=O)O.O=C(O)C(F)(F)F          -3
5  O=C(NC1=CC(=O)c2ccccc2C1=O)c1ccccc1.O=C(O)C(F)(F)F        -1.1

Pending molecule:
Reported Curve Class (confirmatory screen), molecule `Cc1cnc(-c2ccccc2C(C)C)nc1NCc1ccc(-c2ccc(F)nc2)cc1.O=C(O)C(F)(F)F` : ____ -2.1

###

# Target of assay: CIB1 and αIIb interaction (GST-CIB1 : F-αIIb peptide) (Homo sapiens, UniProt Q99828)
# Construct: made in house; host or cells: BL-21 plus RIL cells (E. coli)
# Sequence (Q99828 1-191): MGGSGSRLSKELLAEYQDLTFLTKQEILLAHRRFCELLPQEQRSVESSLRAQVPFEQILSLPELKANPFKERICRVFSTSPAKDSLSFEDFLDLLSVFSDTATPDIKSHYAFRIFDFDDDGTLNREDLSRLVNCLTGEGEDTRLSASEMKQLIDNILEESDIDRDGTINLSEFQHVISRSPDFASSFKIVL
# Method description: FP assay, 384-well format (screen)
# Type: binding
# Details: F-αIIb peptide; read-out: 384-well SCREEN IC50
Value type: log10(IC50) (log10 of the value in µM)
Log10 applied to IC50; unit prior to transform: µM.

Example compounds with recorded log10(IC50):
> print(dat)
                                   compound                           target.of.assay  test.value
1  Nc1c(S(=O)(=O)[O-])cc(Nc2ccc(Nc3nc(Cl)nc(Nc4ccc(S(=O)(=O)O)cc4)n3)c(S(=O)(=O)O)c2)c2c1C(=O)c1ccccc1C2=O.[Na+]  CIB1 and αIIb interaction (GST-CIB1 : F-αIIb peptide) (Homo sapiens, UniProt Q99828)        0.00
2  Cc1ccc(Cl)cc1NC(=O)c1nc[nH]c1C(=O)Nc1nc2ccccc2[nH]1  CIB1 and αIIb interaction (GST-CIB1 : F-αIIb peptide) (Homo sapiens, UniProt Q99828)        1.05
3  Cc1ccc(S(=O)(=O)Nc2cnccc2C(=O)Nc2nc(-c3ccccc3)cs2)cc1.O=C(O)C(F)(F)F  CIB1 and αIIb interaction (GST-CIB1 : F-αIIb peptide) (Homo sapiens, UniProt Q99828)        1.21
4  CC(C)=CCC[C@]1(C)C=Cc2c(O)c3c(c(CC=C(C)C)c2O1)O[C@]12C(=C[C@@H]4CC1C(C)(C)O[C@@]2(C/C=C(/C)C(=O)O)C4=O)C3=O  CIB1 and αIIb interaction (GST-CIB1 : F-αIIb peptide) (Homo sapiens, UniProt Q99828)        0.56
5              COc1nn(CSP(=S)(OC)OC)c(=O)s1  CIB1 and αIIb interaction (GST-CIB1 : F-αIIb peptide) (Homo sapiens, UniProt Q99828)        1.20

Need log10(IC50) of `O=C(Nc1nc(-c2ccccc2)cs1)c1ccncc1NS(=O)(=O)c1cccc2cccnc12.O=C(O)C(F)(F)F` , thanks. 0.80

Look up log10(IC50) for this compound: `Br.CCCCCCCCCCCCCCCC[N+](C)(C)C.[Br-]` 1.20

So what's the measured log10(IC50) for this one? `COc1cccc(-c2csc(NC(=O)c3ccncc3NS(=O)(=O)c3ccc(C)cc3)n2)c1` 1.30
